TESTED_SYSTEM: T1, human glucose-dependent insulinotropic polypeptide (GIP) receptor (human, UniProt P48546 22-466)
T1 sequence (looked up): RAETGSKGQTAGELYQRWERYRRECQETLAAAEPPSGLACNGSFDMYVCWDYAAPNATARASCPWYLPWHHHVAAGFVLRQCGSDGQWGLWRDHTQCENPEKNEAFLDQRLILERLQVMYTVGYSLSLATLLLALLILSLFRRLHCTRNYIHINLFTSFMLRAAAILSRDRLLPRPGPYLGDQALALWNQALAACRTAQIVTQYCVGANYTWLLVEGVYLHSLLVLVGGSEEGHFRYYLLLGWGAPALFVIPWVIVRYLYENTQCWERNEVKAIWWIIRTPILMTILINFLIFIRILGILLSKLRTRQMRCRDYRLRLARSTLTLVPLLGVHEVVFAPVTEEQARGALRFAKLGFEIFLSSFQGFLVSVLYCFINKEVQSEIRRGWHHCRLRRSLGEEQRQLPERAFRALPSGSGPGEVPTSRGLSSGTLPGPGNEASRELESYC
MEASUREMENT_PROTOCOL: cell-based or functional assay
cAMP Emax values, listed per item
MEASUREMENT_LABEL: cAMP Emax (%)

binder="YXEGTXTSDXSIXLDXIAQXKFIKXLIEGGPSSGAPPPS (Aib2, αMeF(2F)6, 4Pal10, αMeL13, Orn16, Aib20, K21(Z), K24(Z), αMeY25, C-terminal NH2; Z = AEEA2-CO-(CH2)12-CO2H) [Example 191]" numeric_value=90
binder="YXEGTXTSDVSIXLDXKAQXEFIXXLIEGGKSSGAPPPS (Aib2, αMeF6, αMeL13, Orn16, K17(Z), Aib20, D-Glu24, αMeY25, K31(Z), C-terminal NH2; Z = AEEA2-(γ-Glu)-CO-(CH2)12-CO2H) [Example 179]" numeric_value=91
binder="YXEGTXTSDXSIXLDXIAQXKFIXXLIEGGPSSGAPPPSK (Aib2, αMeF(2F)6, 2Nal10, αMeL13, Orn16, Aib20, K21(Z), D-Glu24, αMeY25, K40(Z), C-terminal NH2; Z = AEEA2-CO-(CH2)12-CO2H) [Example 258]" numeric_value=90.3
